For each record, write down the corresponding temperature at which the protein starts to denature.
Test: Denaturing of ranaspumin proteins with increasing temperature, monitored by circular dichromium (CD)
Format: physicochemical
Conditions: CD 200-300 nm, 0.25 mg/mL, 20-90° C. in 5° C. steps
Numbers only, in °C.

Molecule	Unit Label	Result Value
RSN 6: recombinant mature ranaspumin protein without signal peptide, Synthetic Amino Acid Sequence No. 6 (protein, listed as Engystomops pustulosus) ETLCIPGRMKQLDAGAGRVVAVKSNGDVYQLLENNWVQIPGKLIHVTVGPAGLWGVNKDKNIYKYVDNDWLQVDGLLNQIDAGGNRFVVGVNDNEDIFCLNQDQTTSNAVKLDYKGVDGKLKYYSSGGYGSWGVNAAYDIFYRRNVHPMSCQGTNWENVEGKLVMLEVAEDGSVYGVNYNGHVYKREGITAGNPMGTSWTYLKVDEKVRHVSYDRGVLYVVTIDDRIFRC	°C	40
RSN 2: recombinant mature ranaspumin protein without signal peptide, Synthetic Amino Acid Sequence No. 2; main surfactant (protein, listed as Engystomops pustulosus) LILDGDLLKDKLKLPVIDNLFGKELLDKFQDDVKDKYGVDTKDLKILKTSEDKRFYYVSVDAGDGEKCKFKIRKDVDVPKMVGRKCRKDDDDDDGY	°C	70

# batch: return temperature at which the protein starts to denature for each of the 3 molecules below
1. RSN 3: recombinant mature ranaspumin protein without signal peptide, Synthetic Amino Acid Sequence No. 3 (protein, listed as Engystomops pustulosus) IDPTGLVQILLLEQVVHKIPPGNINLARTGIATQDSDYTASAVPSEARLAIDGNRNSDFNQKSCSHTGGNEPAWWRLELKKKSKISVVVIAIRSDCCMDRFKGAELRIGNSQDATVNPICGKVSAVKGSNYLFCCDGMEGKYISVVIPDRHEFLSLCEVEVYGAKPIEGTHCK
2. RSN 1: recombinant mature ranaspumin protein without signal peptide, Synthetic Amino Acid Sequence No. 1 (protein, listed as Engystomops pustulosus) GGGNIGGGAKLGPEKPATPGIQDLLKSLLSVLNLSPPAIPEDAEAVSYRDAKNGKFRLIKIHLGGELYCHVKQIAGPILALPIVSDVVEVTGKECGKTEDDPLEDFPIP
3. RSN 4: recombinant mature ranaspumin protein without signal peptide, Synthetic Amino Acid Sequence No. 4 (protein, listed as Engystomops pustulosus) DRNLALDGRATMSSIWMDPDIRQSFLGVAMNGIDGNTDSVYFHGSCFHTGLDSPAWYRVDLLRTSKISSITITNRGDFGSRTNGAEIRIGDSLANNGNNNPRCALVTSIADGETRTFQCNNMVGRYVNIVLTGKTEFLHLCEVQIFGENLPRSFSCQYSNDGMITLLVSTRFMK

Out:
1: 70; 2: 50; 3: 50
